- subject_of_test: full-length beta-Catenin (Uniprot ID P35222) (Homo sapiens (Human)) (UniProt P35222)
- Sequence (P35222 whole entry): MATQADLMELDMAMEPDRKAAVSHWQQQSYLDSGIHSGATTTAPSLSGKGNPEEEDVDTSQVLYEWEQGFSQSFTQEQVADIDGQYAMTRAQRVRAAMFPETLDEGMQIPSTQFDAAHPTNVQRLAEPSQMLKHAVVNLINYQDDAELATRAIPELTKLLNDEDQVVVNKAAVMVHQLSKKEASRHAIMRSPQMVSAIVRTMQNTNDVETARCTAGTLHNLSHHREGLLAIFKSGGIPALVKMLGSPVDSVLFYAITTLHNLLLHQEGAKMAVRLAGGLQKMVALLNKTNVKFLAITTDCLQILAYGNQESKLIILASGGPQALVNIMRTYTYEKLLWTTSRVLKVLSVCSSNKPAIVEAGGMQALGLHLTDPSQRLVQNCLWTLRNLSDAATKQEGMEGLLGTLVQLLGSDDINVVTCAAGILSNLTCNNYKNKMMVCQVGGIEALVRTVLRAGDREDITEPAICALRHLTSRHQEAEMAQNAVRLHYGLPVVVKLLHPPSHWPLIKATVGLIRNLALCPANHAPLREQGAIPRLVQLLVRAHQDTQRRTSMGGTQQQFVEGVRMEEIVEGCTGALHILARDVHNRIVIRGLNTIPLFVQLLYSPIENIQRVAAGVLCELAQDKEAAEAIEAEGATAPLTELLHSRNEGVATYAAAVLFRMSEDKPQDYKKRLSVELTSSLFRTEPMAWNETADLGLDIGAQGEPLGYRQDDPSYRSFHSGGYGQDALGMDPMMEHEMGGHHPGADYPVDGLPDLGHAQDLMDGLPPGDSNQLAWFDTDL
- assay_info: fluorescence polarization competition against 5FAM-TCF4 10-53
pIC50: −log10 of the molar value. Starred links: 1 amine or outer side, 2 acyl side, 3 side chain; linkers in the order of their positions; H or OH if unused. Positions of bridges follow the written chain, without caps; N, C: chain ends. Non-standard residues stand in square brackets, D forms with d. Primed or numbered codes have the meaning given here. PyrS2″ = (S)-3-amino-1-((pent-4-en-1-yloxy)carbonyl)pyrrolidine-3-carboxylic acid (stapling residue), C=CCCCOC(=O)N1CC[C@@](N[*:1])(C(=O)[*:2])C1; B5(5) = 2,2-bis(4-pentenyl)glycine, 2-amino-2-(pent-4-en-1-yl)hept-6-enoic acid (stitching residue), C=CCCCC(CCCC=C)(N[*:1])C(=O)[*:2]; PyrS2 = (S)-3-amino-1-((pent-4-en-1-yloxy)carbonyl)pyrrolidine-3-carboxylic acid, C=CCCCOC(=O)N1CC[C@@](N[*:1])(C(=O)[*:2])C1; 4F3COOHF = (S)-5-(2-amino-2-carboxyethyl)-2-fluorobenzoic acid, O=C([C@H](Cc1ccc(F)c(C(=O)[*:3])c1)N[*:1])[*:2]; B5(3) = 2,2-bis(4-pentenyl)glycine (stitching residue), C=CCCCC(CCCC=C)(N[*:1])C(=O)[*:2]; Phe(3-COOH) = N[C@@H](Cc1cccc(C(=O)O)c1)C(=O)O; 2F3MeF = Cc1cccc(C[C@H](N[*:1])C(=O)[*:2])c1F; Phe(4-Cl) = N[C@@H](Cc1ccc(Cl)cc1)C(=O)O; Bta = N[C@@H](Cc1csc2ccccc12)C(=O)O; αAllylPro = C=CC[C@@]1(C(=O)O)CCCN1; tBuAla = CC(C)(C)C[C@H](N)C(=O)O; 3Thi = N[C@@H](Cc1ccsc1)C(=O)O; 34ClF = not defined here
measurement_kind: pIC50

{"binder": "Ac-[αAllylPro]D[tBuAla][B5(3)]D[Phe(3-COOH)]AAFL[PyrS2″][3Thi][34ClF]Q-NH2 (staple 1-4, 4-11; reading uncertain) [I-2216]", "pIC50": 8.15}
{"binder": "Ac-[αAllylPro]D[tBuAla][B5(3)]D[Phe(3-COOH)]AAFL[PyrS2″][2F3MeF][34ClF]S-NH2 (staple 1-4, 4-11; reading uncertain) [I-2218]", "pIC50": 7.47}

(a) Ac-[αAllylPro]D[tBuAla][B5(5)]D[4F3COOHF]QAFL[PyrS2][3Thi][Bta]A-NH2 (staple 1-4, 4-11) [I-2206]
(b) Ac-[αAllylPro]D[tBuAla][B5(3)]D[Phe(3-COOH)]AAFL[PyrS2″][3Thi][Phe(4-Cl)]Q-NH2 (staple 1-4, 4-11) [I-2220]
Which value of pIC50 is smaller, the one for a or the one for b ? The response must carry the label of the picked entry.
b
